The measurements presented in this section are drawn from patent US8952024B2.

System: nightshade (eastern black nightshade, Solanum ptycanthum)
Test: Test B pre-/postemergence plant response
Assay type: in vivo
Details: Preemergence, 31 g ai/ha; scale 0 to 100 (0 no effect, 100 complete control)
Property: Plant response rating, Nightshade; scope: individual compounds
Please state the value as a number alone, without comment.

compound=Cc1cc(F)ccc1-n1c(-c2ccccc2)ncc(C(=O)C2=C(O)CCCC2=O)c1=O targetentity="nightshade (eastern black nightshade, Solanum ptycanthum)" measuredquantity="Plant response rating, Nightshade" observedresult=100
compound="COCCCn1c(-c2cc(F)cc(F)c2)ncc(C(=O)C2=C(O)C3CCC(C3)C2=O)c1=O (centres unmarked)" targetentity="nightshade (eastern black nightshade, Solanum ptycanthum)" measuredquantity="Plant response rating, Nightshade" observedresult=98
compound=Cc1cccc(-n2c(-c3ccccc3)ncc(C(=O)C3=C(O)CCCC3=O)c2=O)c1C targetentity="nightshade (eastern black nightshade, Solanum ptycanthum)" measuredquantity="Plant response rating, Nightshade" observedresult=80
compound=CC(C)Cc1ncc(C(=O)C2=C(O)CCCC2=O)c(=O)n1-c1ccccc1 targetentity="nightshade (eastern black nightshade, Solanum ptycanthum)" measuredquantity="Plant response rating, Nightshade" observedresult=98
compound=Cc1ccc(C)c(-n2c(-c3ccccc3)ncc(C(=O)C3=C(O)CCCC3=O)c2=O)c1 targetentity="nightshade (eastern black nightshade, Solanum ptycanthum)" measuredquantity="Plant response rating, Nightshade" observedresult=90

In: Which Plant response rating, Nightshade reading was recorded for the compound `CCCc1ncc(C(=O)C2=C(O)CCCC2=O)c(=O)n1-c1ccccc1` ?
Out: 95

In: Param item: `O=C1CCCC(O)=C1C(=O)c1cnc(-c2ccccc2)n(-c2ccccc2)c1=O`
Out: 98

###

Tested on: large crabgrass (Digitaria sanguinalis)
Experiment: Test B pre-/postemergence plant response
Format: in vivo
Conditions: Preemergence, 125 g ai/ha; scale 0 to 100, 0 no effect, 100 complete control
measuredQuantity: Plant response rating, Crabgrass, Large
Give only the figure.

Look over these answered cases.
inputsmiles=Cc1ccc(Cl)cc1-n1c(-c2ccccc2)ncc(C(=O)C2=C(O)CCCC2=O)c1=O targetentity="large crabgrass (Digitaria sanguinalis)" observedresult=100
inputsmiles=CCc1cccc(-n2c(-c3ccccc3)ncc(C(=O)C3=C(O)CCCC3=O)c2=O)c1 targetentity="large crabgrass (Digitaria sanguinalis)" observedresult=80
inputsmiles=CCCCc1ncc(C(=O)C2=C(O)CCCC2=O)c(=O)n1-c1ccccc1C targetentity="large crabgrass (Digitaria sanguinalis)" observedresult=80

Next molecule, please.
In: Returns the measured Plant response rating, Crabgrass, Large for the input molecule. Input: `O=C1CCCC(O)=C1C(=O)c1cnc(-c2cccs2)n(-c2ccccc2)c1=O`
Out: 95

###

Test system: velvetleaf (Abutilon theophrasti)
Assay: Test B pre-/postemergence plant response
Type: in vivo
Conditions: Postemergence, 250 g ai/ha; scale 0 to 100 (0 no effect, 100 complete control); 13 to 15 days
Recorded Plant response rating, Velvetleaf values for a group of compounds are listed next.
No unit in the answer, please; the number alone is enough.

compound="CCCCn1c(C2CC2)ncc(C(=O)C2=C(O)CCCC2=O)c1=O [Compound 193]" targetentity="velvetleaf (Abutilon theophrasti)" measuredquantity="Plant response rating, Velvetleaf" observedresult=100

In: Plant response rating, Velvetleaf for O=C1CCCC(O)=C1C(=O)c1cnc(-c2ccsc2)n(C2CCOCC2)c1=O [Compound 186] ?
Out: 100

In: Ok, now O=C1CCCC(O)=C1C(=O)c1cnc(-c2ccccc2)n(C2CCCCCC2)c1=O [Compound 130]
Out: 100

In: Moving on to CCCn1c(-c2ccccc2)ncc(C(=O)C2=C(O)C3CCC(C3)C2=O)c1=O (stereo not drawn) [Compound 226]
Out: 98

In: Entry to check: O=C1CCCC(O)=C1C(=O)c1cnc(-c2ccccc2)n(C2CCOCC2)c1=O [Compound 129]
Out: 100

In: # repeat for CCc1cccc(-n2c(-c3ccccc3)ncc(C(=O)C3=C(O)CCCC3=O)c2=O)c1 [Compound 220]
Out: 100

###

System: giant foxtail (Setaria faberii)
Experiment: Test A pre-/postemergence plant response
Format: in vivo
Conditions: Postemergence, 500 g ai/ha; 0 to 100 scale, 0 = no effect, 100 = complete control; approx. ten days
measuredQuantity: Plant response rating, Foxtail, Giant
Reply: number alone, nothing else.

Answered cases to consult:
molecule="O=C1CCCC(O)=C1C(=O)c1cnc(-c2ccc(Cl)cc2)n(-c2ccccc2)c1=O [Compound 25]" observedresult=90
molecule="O=C1CCCC(O)=C1C(=O)c1cnc(-c2cccs2)n(-c2ccccc2)c1=O [Compound 66]" observedresult=80

Now for a further molecule.
In: Which measured Plant response rating, Foxtail, Giant value corresponds to Cc1cc(F)ccc1-n1c(-c2ccccc2)ncc(C(=O)C2=C(O)CCCC2=O)c1=O [Compound 48] ?
Out: 100

###

System: canarygrass (Phalaris minor)
Assay: Test B postemergence plant response
Format: in vivo
Details: Postemergence, 250 g ai/ha; scale 0 to 100 (0 no effect, 100 complete control)
For each record, check the reported Plant response rating, Canarygrass: if it is below 20 write 1 (yes), else write 0 (no).

Sample answers from the record:
inputsmiles=CCOCCn1c(-c2ccccc2)ncc(C(=O)C2=C(O)CCCC2=O)c1=O cat="0 (no)"
inputsmiles=CC(C)Cc1ncc(C(=O)C2=C(O)CCCC2=O)c(=O)n1-c1ccccc1 cat="0 (no)"
inputsmiles=CCCn1c(-c2ccsc2)ncc(C(=O)C2=C(O)CCCC2=O)c1=O cat="1 (yes)"
inputsmiles=O=C1CCCC(O)=C1C(=O)c1cnc(-c2ccsc2)n(C2CCCCC2)c1=O cat="0 (no)"
inputsmiles=COCCn1c(-c2cccs2)ncc(C(=O)C2=C(O)CCCC2=O)c1=O cat="1 (yes)"

With those in mind, consider the next compound.
In: Decide: Plant response rating, Canarygrass of `COCCn1c(-c2ccco2)ncc(C(=O)C2=C(O)CCCC2=O)c1=O` strictly below 20?
Out: 1 (yes)

###

Test system: umbrella sedge (Cyperus difformis)
Test: Test B flooded paddy test
Format: in vivo
Conditions: Flood (flooded paddy test), 62 g ai/ha; scale of 0 to 100 where 0 is no effect and 100 is complete control; 13 to 15 days
measuredQuantity: Plant response rating, Sedge, Umbrella
When you answer, write just the number.

In: Plant response rating, Sedge, Umbrella for `COCCn1c(-c2ccco2)ncc(C(=O)C2=C(O)CCCC2=O)c1=O` ?
Out: 75

In: Check `COCCn1c(-c2cccc(Br)c2)ncc(C(=O)C2=C(O)CCCC2=O)c1=O` too.
Out: 70

In: Queued: `Cc1cccc(-n2c(-c3cccc(Cl)c3)ncc(C(=O)C3=C(O)CCCC3=O)c2=O)c1`
Out: 70

###

Test system: pigweed (Amaranthus retroflexus)
Assay: Test B pre-/postemergence plant response
Format: in vivo
Conditions: Postemergence, 31 g ai/ha; 0 to 100 scale (0 no effect, 100 complete control)
measuredQuantity: Plant response rating, Pigweed
Just the number, please, no unit attached.

The cases that follow already have their Plant response rating, Pigweed on record.
compound=O=C1CCCC(O)=C1C(=O)c1cnc(-c2ccsc2)n(C2CCOCC2)c1=O measuredquantity="Plant response rating, Pigweed" observedresult=85
compound=CCCn1c(-c2cc(Cl)cc(Cl)c2)ncc(C(=O)C2=C(O)CCCC2=O)c1=O measuredquantity="Plant response rating, Pigweed" observedresult=85
compound="COCCCn1c(-c2cc(F)cc(F)c2)ncc(C(=O)C2=C(O)C3CCC(C3)C2=O)c1=O (stereo not drawn)" measuredquantity="Plant response rating, Pigweed" observedresult=95
compound=CCCc1ncc(C(=O)C2=C(O)CCCC2=O)c(=O)n1-c1ccccc1 measuredquantity="Plant response rating, Pigweed" observedresult=85
compound="O=C1CCCC(O)=C1C(=O)c1cnc(-c2ccccc2)n(C2CC[S+]([O-])CC2)c1=O (mixture of isomers)" measuredquantity="Plant response rating, Pigweed" observedresult=100

In: Item under review: CCCn1c(-c2ccccc2)ncc(C(=O)C2=C(O)C3CCC(C3)C2=O)c1=O (stereo not drawn) . Reported Plant response rating, Pigweed?
Out: 75

###

Entries and their measured Plant response rating, Chickweed follow.
Test system: chickweed (Stellaria media)
Experiment: Test B postemergence plant response
Assay type: in vivo
Details: Postemergence, 31 g ai/ha; 0 to 100 scale (0 no effect, 100 complete control)
Quick one: just the number, no unit, thanks!

Recorded results for 2 molecules are shown here.
molecule="O=C1CCCC(O)=C1C(=O)c1cnc(-c2ccccc2)n(C2CCOCC2)c1=O [Compound 129]" measuredquantity="Plant response rating, Chickweed" observedresult=85
molecule="COCCCn1c(-c2cccc(F)c2)ncc(C(=O)C2=C(O)CCCC2=O)c1=O [Compound 126]" measuredquantity="Plant response rating, Chickweed" observedresult=65

In: I'd like to know its Plant response rating, Chickweed. The molecule in question is CCCCn1c(-c2ccccc2)ncc(C(=O)C2=C(O)C3CCC(C3)C2=O)c1=O (centres unmarked) [Compound 240]
Out: 90

In: Next record, please: CCCn1c(-c2cccc(F)c2)ncc(C(=O)C2=C(O)CCCC2=O)c1=O [Compound 127]
Out: 65

In: Try this molecule too: Cc1ccc(-n2c(-c3cc(F)cc(F)c3)ncc(C(=O)C3=C(O)CCCC3=O)c2=O)cc1 [Compound 162]
Out: 90

In: Another molecule to check: COCCCn1c(-c2cc(F)cc(F)c2)ncc(C(=O)C2=C(O)C3CCC(C3)C2=O)c1=O (centres unmarked) [Compound 244]
Out: 80

In: Can you handle CCn1c(-c2cc(F)cc(F)c2)ncc(C(=O)C2=C(O)CCCC2=O)c1=O [Compound 122] next?
Out: 70

In: Okay, and CCCc1ncc(C(=O)C2=C(O)CCCC2=O)c(=O)n1-c1ccccc1 [Compound 217] ?
Out: 75
